Numbers sourced from patent US4233403A.

- System: α-amylase
- protocolText: amylase assay with nitrophenyl oligosaccharide substrate plus α-glucosidase, rate at 410 nm, standard curve
- Format: biochemical
- conditions: 4 mg/3 ml G4 pNp, 7.5 IU/3 ml α-glucosidase, pH 6.5, 37° C., 410 nm; from standard curve
quantityName: Sensitivity (mA/min/SU/dl)
Hi! Could you send only the number? It should be in mA/min/SU/dl, unit omitted.

Example cases with answers are listed next.
O=[N+]([O-])c1ccc(O[C@H]2O[C@H](CO)[C@@H](O[C@H]3O[C@H](CO)[C@@H](O[C@H]4O[C@H](CO)[C@@H](O[C@H]5O[C@H](CO)[C@@H](O)[C@H](O)[C@H]5O)[C@H](O)[C@H]4O)[C@H](O)[C@H]3O)[C@H](O)[C@H]2O)cc1 [Example 2, α-(4-nitrophenyl) maltotetraoside]; 0.231
O=[N+]([O-])c1ccc(O[C@H]2O[C@H](CO)[C@@H](O[C@H]3O[C@H](CO)[C@@H](O[C@H]4O[C@H](CO)[C@@H](O[C@H]5O[C@H](CO)[C@@H](O)[C@H](O)[C@H]5O)[C@H](O)[C@H]4O)[C@H](O)[C@H]3O)[C@H](O)[C@H]2O)cc1 [Example 3, α-(4-nitrophenyl) maltotetraoside]; 0.110
O=[N+]([O-])c1ccc(O[C@H]2O[C@H](CO)[C@@H](O[C@H]3O[C@H](CO)[C@@H](O[C@H]4O[C@H](CO)[C@@H](O[C@H]5O[C@H](CO)[C@@H](O)[C@H](O)[C@H]5O)[C@H](O)[C@H]4O)[C@H](O)[C@H]3O)[C@H](O)[C@H]2O)cc1 [Example 1, α-(4-nitrophenyl) maltotetraoside]; 0.115

Query: Requested field: Sensitivity. Item: O=[N+]([O-])c1ccc(O[C@H]2O[C@H](CO)[C@@H](O[C@H]3O[C@H](CO)[C@@H](O[C@H]4O[C@H](CO)[C@@H](O[C@H]5O[C@H](CO)[C@@H](O)[C@H](O)[C@H]5O)[C@H](O)[C@H]4O)[C@H](O)[C@H]3O)[C@H](O)[C@H]2O)cc1 [Example 4, α-(4-nitrophenyl) maltotetraoside]
Reply: 0.116
